- Tested on: Z-138 cells
- MEASUREMENT_PROTOCOL: Z-138 Methylation Assay (In Cell Western for symmetric di-methyl arginine and DNA content)
- Assay type: cell-based
- CONDITION_CONTEXT: Homo sapiens, Table D-2, read-out: ICW EC50
Kindly supply the reported EC50 values for the records listed here.

INSERT INTO assay_data (compound, target_or_system, result) VALUES
  ('OC(COc1cccc(-c2ccccc2C(F)(F)F)c1)CN1CCc2ccccc2C1 (stereo not shown)', 'Z-138 cells', '1000 to 10000 nM');

Hi, could you look up EC50 for each item in my list?
1. CN1CCN(C(=O)Cn2ccc3cnc(-c4ccnc(NCC(O)CN5CCc6ccccc6C5)c4)nc32)CC1 (stereo not shown)
2. Cn1ncc2ccc(-c3cccc(OCC(O)CN4CCc5ccccc5C4)c3)cc21 (stereo not shown)
3. OC(COc1cccc(-c2ccc3nc[nH]c3c2)c1)CN1CCc2ccccc2C1 (stereo not shown)

1: < 100 nM; 2: 1000 to 10000 nM; 3: 1000 to 10000 nM

List reported EC50 for each of these compounds:
1. Cn1cnc2ccc(-c3cncc(NCC(O)CN4CCc5ccccc5C4)c3)cc21 (stereo not shown)
2. O=C(Cn1cnc2ccc(-c3cccc(OCC(O)CN4CCc5ccccc5C4)c3)cc21)N1CCOCC1 (stereo not shown)

1: < 100 nM; 2: 1000 to 10000 nM

// each listed compound needs a value for EC50
1. COc1cccc(-c2cccc(OCC(O)CN3CCc4ccccc4C3)c2)c1 (stereo not shown)
2. Cn1cnc2ccc(-c3cccc(OC[C@@H](O)CN4CCc5ccccc5C4)c3)cc21
3. CC(Oc1cccc(CNC2CCCC2)c1)C(O)CN1CCc2ccccc2C1 (stereo not shown)
4. COC(COc1cccc(CNC2CCCC2)c1)CN1CCc2ccccc2C1 (stereo not shown)
5. Cc1cn(C)c2cc(-c3cccc(OCC(O)CN4CCc5ccccc5C4)c3)ccc12 (stereo not shown)
6. OC(COc1cccc(-c2ccc3ncn(C4CCNC4)c3c2)c1)CN1CCc2ccccc2C1 (stereo not shown)
7. CC(C)Oc1ccc(F)c(-c2cccc(OCC(O)CN3CCc4ccccc4C3)c2)c1 (stereo not shown)

1: 1000 to 10000 nM; 2: 1000 to 10000 nM; 3: 101 to 1000 nM; 4: > 20000 nM; 5: 1000 to 10000 nM; 6: 101 to 1000 nM; 7: 1000 to 10000 nM
